Would you kindly list EC50 for each of these molecules?
Tested on: HIV-1IIIB
Assay: Anti-HIV activity in H9 cells
Type: cell-based
Conditions: Human immunodeficiency virus 1; HIV-1IIIB, H9 cells; read-out: EC50
One number for each entry, in µg/mL.

Answered cases to consult:
COc1ccccc1NC(=O)c1c(N)cccc1Sc1ccc([N+](=O)[O-])cc1 :: 0.74
Nc1ccccc1NC(=O)c1c(Sc2ccc([N+](=O)[O-])cc2)cccc1[N+](=O)[O-] :: 43.7

Turning now to a further molecule:
Notebook: COc1ccccc1NC(=O)c1c(NS(=O)(=O)c2ccc(C)cc2)cccc1Sc1ccc([N+](=O)[O-])cc1 , EC50 read as 16.8

###

Assay: Cytotoxicity (CC50) in H9 cells
Assay type: cell-based, human
Conditions: human; read-out: CC50
observation-type: CC50

Input COc1ccccc1NC(=O)c1c(N)cccc1S(=O)(=O)c1ccc([N+](=O)[O-])cc1 . Output CC50: > 200 µg/mL

###

Test system: HIV-1IIIB
Assay: Anti-HIV activity in H9 cells
Type: cell-based
Conditions: Human immunodeficiency virus 1; HIV-1IIIB, H9 cells; read-out: EC50
I'd appreciate it if you could supply EC50 values for the items below.
Give bare numbers, in µg/mL.

Sample records with EC50:
COc1ccccc1NC(=O)c1c(N)cccc1S(=O)(=O)c1ccc([N+](=O)[O-])cc1 :: 0.66
COc1ccccc1NC(=O)c1c(NC(=O)CN)cccc1Sc1ccc([N+](=O)[O-])cc1.Cl :: 0.16

Let us examine a further case.
For reference, reported EC50 for COc1ccc(NC(=O)c2c(N)cccc2Sc2ccc([N+](=O)[O-])cc2)c(OC)c1 stands at 18.8

###

I'd appreciate it if you could supply TI values for the items below.
Test system: HIV-1IIIB
Assay: Anti-HIV activity in H9 cells
Format: cell-based
Settings: H9 cells, CC50/EC50
Numbers only.

Worked cases, answers included:
COc1ccccc1NC(=O)c1c(NCCBr)cccc1Sc1ccc([N+](=O)[O-])cc1 :: 0.85
Nc1cccc(NC(=O)c2c(N)cccc2Sc2ccc([N+](=O)[O-])cc2)c1 :: 4.82
COc1ccccc1NC(=O)c1c(N)cccc1Oc1ccc([N+](=O)[O-])cc1 :: 2.14

Give TI for each listed item.
1. COc1ccccc1NC(=O)c1c(NCCO)cccc1S(=O)(=O)c1ccc([N+](=O)[O-])cc1
2. COc1ccccc1NC(=O)c1c(NCCO)cccc1Sc1ccc([N+](=O)[O-])cc1
3. O=C(O)c1cccc(NC(=O)c2c(Sc3ccc([N+](=O)[O-])cc3)cccc2[N+](=O)[O-])c1
4. COc1ccccc1NC(=O)c1c(NCCN)cccc1S(=O)(=O)c1ccc([N+](=O)[O-])cc1

Response line:
1: 0.71; 2: 6.08; 3: 1.02; 4: 0.99

###

Test: Cytotoxicity (CC50) in H9 cells
Assay type: cell-based, human
Conditions: human, H9 cells; read-out: CC50
observation-type: CC50 (µg/mL)
Give bare numbers, in µg/mL.

Some solved cases for reference:
COc1ccccc1NC(=O)c1c(NC(=O)C(N)CCCCN)cccc1Sc1ccc([N+](=O)[O-])cc1.Cl (stereo not drawn) [Compound 68, hydrochloride] :: 90.1
COc1ccccc1NC(=O)c1c(NCCBr)cccc1Sc1ccc([N+](=O)[O-])cc1 :: 17.8
COc1ccccc1NC(=O)c1c(NC(=O)CN)cccc1Sc1ccc([N+](=O)[O-])cc1.Cl [Compound 66, hydrochloride] :: 72.3

Here is another compound to look at.
Form: compound = COc1ccc(NC(=O)c2c(N)cccc2Sc2ccc([N+](=O)[O-])cc2)c(OC)c1 ; CC50 = 18.1

Origin of values: patent US9402819B2
